Target: prostaglandin E2 type 2 (EP2) receptors (Homo sapiens, UniProt P43116)
Construct: These full length receptors are used to prepare 293S cells expressing the EP1, EP2, EP3 and EP4 receptors; expressed in transfected cells; membranes
Sequence (P43116 whole entry): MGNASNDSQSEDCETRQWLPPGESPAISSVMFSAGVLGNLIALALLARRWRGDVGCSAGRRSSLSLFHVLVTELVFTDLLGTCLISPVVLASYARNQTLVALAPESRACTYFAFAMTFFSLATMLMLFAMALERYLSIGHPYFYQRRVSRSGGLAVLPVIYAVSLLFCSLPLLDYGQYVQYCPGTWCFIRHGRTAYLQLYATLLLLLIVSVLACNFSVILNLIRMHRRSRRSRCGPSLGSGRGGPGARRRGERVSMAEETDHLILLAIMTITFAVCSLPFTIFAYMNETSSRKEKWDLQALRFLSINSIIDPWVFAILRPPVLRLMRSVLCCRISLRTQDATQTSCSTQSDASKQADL
Assay: Assay for Binding to Prostaglandin E2 Receptors (3H-prostaglandin E2 displacement, membranes of transfected 293S cells)
Conditions: concentration displacing 50% of specifically bound 3H-prostaglandin E2, 1 hour at 25° C.
pIC50: −log10 of the molar value.
ATTRIBUTE_MEASURED: pIC50

> print(dat)
                               smiles.input  result.value
1  O=C(O)c1ccc(CCCN(CCCc2cccc(Cl)c2)C(=O)Nc2cccc(Cl)c2Cl)s1          6.46
2  Cn1cc(CN(Cc2cccc(CC(=O)O)c2)S(=O)(=O)c2cccnc2)c2ccccc21          6.80
3  O=C(O)Cc1cccc(CN(Cc2ccc(-c3ccccc3)o2)S(=O)(=O)c2cccnc2)c1          7.62

---

Target: prostaglandin E2 type 2 (EP2) receptors (Homo sapiens)
Entries and their IC50 values follow.
ATTRIBUTE_MEASURED: IC50 (nM)

> print(dat)
                               smiles.input  attribute.measured  result.value
1  O=C(O)c1ccc(CCCN(CCCc2cccc(Cl)c2)C(=O)Cc2ccccn2)s1                IC50           355
2  O=C(O)Cc1cccc(CN(Cc2ccc3c(c2)OCCO3)S(=O)(=O)c2cccnc2)c1                IC50            44
3  O=C(O)Cc1cccc(CN(Cc2ccc(Oc3ccccc3)cc2)S(=O)(=O)c2cccnc2)c1                IC50           106
4  O=C(O)c1ccc(CCCN(CCCc2cccc(Cl)c2)S(=O)(=O)c2cccc3nsnc23)s1                IC50           440

---

IC50, prostaglandin E2 type 2 (EP2) receptors (Homo sapiens), per-entry values.
ATTRIBUTE_MEASURED: IC50 (nM)

> print(dat)
                                    molecule  attribute.measured  result.value
 1  CCCCCc1ccc(CN(Cc2cccc(CC(=O)O)c2)S(=O)(=O)c2cccnc2)cc1 [Example 1g]                IC50           109
 2  O=C(O)Cc1cccc(CN(Cc2ccc(Cc3ccccc3)cn2)S(=O)(=O)c2cccnc2)c1 [Example 1d]                IC50           885
 3  O=C(O)Cc1cccc(CN(CCOc2cccc(Cl)c2)S(=O)(=O)c2cccnc2)c1 [Example 2]                IC50            45
 4  O=C(O)Cc1cccc(CN(Cc2ccc(-c3cnccn3)cc2)S(=O)(=O)c2cccnc2)c1 [Example 1ak]                IC50          6.19
 5  CCCCc1ccc(CN(Cc2cccc(CC(=O)O)c2)S(=O)(=O)c2ccccc2)cc1 [Example 9a]                IC50          84.5
 6  O=C(O)c1ccc(CCCN(Cc2ccc(-c3nccs3)cc2)S(=O)(=O)c2cccnc2)s1 [Example 1an]                IC50            94
 7  O=C(O)c1ccc(CCCN(CCCc2cccc(Cl)c2)C(=O)Nc2ccccc2)s1 [Example 7b]                IC50           140
 8  CCCNC(=O)N(CCCc1cccc(Cl)c1)CCCc1ccc(C(=O)O)s1 [Example 7d]                IC50            52
 9  COC(=O)c1ccccc1S(=O)(=O)N(CCCc1cccc(Cl)c1)CCCc1ccc(C(=O)O)s1 [Example 6e]                IC50           325
10  O=C(O)Cc1cccc(CN(Cc2ccc3c(c2)OCO3)S(=O)(=O)c2cccnc2)c1 [Example 1ah]                IC50           181
11  COc1ccc(S(=O)(=O)N(CCCc2cccc(Cl)c2)CCCc2ccc(C(=O)O)s2)cc1 [Example 4a]                IC50           795
12  Cn1cnc(S(=O)(=O)N(Cc2ccc(Oc3ccccc3)cc2)Cc2cccc(CC(=O)O)c2)c1 [Example 1ae]                IC50           121
13  CCCCc1ccc(CN(CCCCCCC(=O)O)S(=O)(=O)c2cccnc2)cc1 [Example 1]                IC50           395
14  O=C(O)c1ccc(CCCN(CCCc2cccc(Cl)c2)S(=O)(=O)c2ccc(-n3ncc(=O)[nH]c3=O)cc2)s1 [Example 6d]                IC50           170
15  O=C(O)Cc1cccc(CN(Cc2ccc(SCCc3ccccc3)cc2)S(=O)(=O)c2cccnc2)c1 [Example 1e]                IC50           760
16  O=C(O)Cc1cccc(CN(CCOc2cc(Cl)cc(Cl)c2)S(=O)(=O)c2cccnc2)c1 [Example 2b]                IC50           385

The values you see were collected from patent US20050203086A1.
